TARGET SYSTEM: UniProt P36888
Sequence (P36888 27-993): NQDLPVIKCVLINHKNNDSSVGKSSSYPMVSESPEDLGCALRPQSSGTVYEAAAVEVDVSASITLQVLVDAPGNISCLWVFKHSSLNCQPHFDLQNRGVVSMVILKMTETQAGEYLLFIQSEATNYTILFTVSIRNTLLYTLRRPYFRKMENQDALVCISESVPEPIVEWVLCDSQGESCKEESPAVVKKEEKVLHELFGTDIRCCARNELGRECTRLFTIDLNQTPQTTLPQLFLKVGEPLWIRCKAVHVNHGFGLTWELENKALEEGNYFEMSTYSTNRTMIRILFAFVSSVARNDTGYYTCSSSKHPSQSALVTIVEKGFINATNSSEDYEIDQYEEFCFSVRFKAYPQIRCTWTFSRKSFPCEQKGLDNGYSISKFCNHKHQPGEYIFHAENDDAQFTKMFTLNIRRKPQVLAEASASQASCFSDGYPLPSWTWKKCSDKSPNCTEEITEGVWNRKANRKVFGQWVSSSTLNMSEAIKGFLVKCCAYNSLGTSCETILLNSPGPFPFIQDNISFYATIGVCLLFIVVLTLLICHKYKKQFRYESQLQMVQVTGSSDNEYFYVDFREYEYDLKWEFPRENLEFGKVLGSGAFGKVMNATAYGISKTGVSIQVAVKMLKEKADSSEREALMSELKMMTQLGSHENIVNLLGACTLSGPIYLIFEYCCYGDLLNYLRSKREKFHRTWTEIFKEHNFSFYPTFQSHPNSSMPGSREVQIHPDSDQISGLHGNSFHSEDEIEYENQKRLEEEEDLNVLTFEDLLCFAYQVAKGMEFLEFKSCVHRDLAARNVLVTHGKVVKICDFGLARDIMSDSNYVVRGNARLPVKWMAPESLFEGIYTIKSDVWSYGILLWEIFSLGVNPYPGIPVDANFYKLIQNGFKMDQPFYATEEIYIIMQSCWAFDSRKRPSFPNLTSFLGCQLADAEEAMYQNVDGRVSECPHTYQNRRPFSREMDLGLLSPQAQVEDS
TEST NAME: RBC HotSpot Kinase Assay, FLT3
Assay type: biochemical
Set-up: purchased Reaction Biology (RBC HotSpot)
DETAILS: isolated kinase enzyme, 33P-ATP, P81 filter-binding
This section presents molecules with their documented IC50 values.
VALUE KIND: IC50 (nM)

INSERT INTO assay_data (molecule, inequality_sign, result_number) VALUES
  ('Fc1cnc(N[C@H]2CNCC[C@@H]2F)nc1-c1cnc2cnc(C3COC3)cn12 [Compound 117a]', '=', 3),
  ('CC(O)(c1ccc2ncc(-c3cncc(N[C@H]4CNC[C@@H]4F)n3)n2c1)C(F)(F)F (single isomer, unassigned) [Compound 32a]', '=', 2),
  ('COc1cc2ncc(-c3cncc(N[C@@H]4CCCNC4)n3)n2nc1C1CC(F)(F)C1 [Compound 72a]', '=', 0.8),
  ('COc1cc2ncc(-c3nc(N[C@H]4CNCC[C@@H]4F)ncc3F)n2nc1N1CCOCC1 [Compound 121a]', '<', 0.5),
  ('FC(F)COc1cc2ncc(-c3ccnc(N[C@@H]4CCCNC4)n3)n2nc1C1CC1', '<', 0.5),
  ('COc1cc2ncc(-c3nc(N[C@@H]4CCCNC4)ncc3F)n2nc1C1CC2(CCC2)C1 [Compound 59a]', '<', 0.5),
  ('[2H]C([2H])([2H])Oc1cc2ncc(-c3ccnc(N[C@@H]4CCCNC4)n3)n2nc1C1CC1 [Compound 129a]', '<', 0.5),
  ('COc1cc2ncc(-c3ccnc(N[C@H]4CNC[C@@H]4F)n3)n2nc1C1CC(F)(F)C1 [Compound 20a]', '=', 0.7),
  ('CC(O)(c1ccc2ncc(-c3nc(N[C@H]4CNCC[C@@H]4F)ncc3F)n2c1)C(F)(F)F (single isomer, unassigned) [Compound 34a]', '=', 0.6),
  ('[2H]C([2H])([2H])Oc1cc2ncc(-c3ccnc(N[C@H]4CNCC[C@@H]4F)n3)n2nc1C1CC1 [Compound 128a]', '<', 0.5),
  ('CC(O)(c1cn2c(-c3nc(N[C@H]4CNCC[C@@H]4F)ncc3F)cnc2cn1)C(F)(F)F (single isomer, unassigned) [Compound 133a]', '=', 1),
  ('COc1cc2ncc(-c3ccnc(N[C@H]4CNCC[C@@H]4F)n3)n2nc1C1CC(F)(F)C1 [Compound 19a]', '<', 0.5),
  ('CC(O)(c1ccc2ncc(-c3nc(N[C@H]4CNC[C@@H]4F)ncc3F)n2c1)C(F)(F)F (single isomer, unassigned) [Compound 36a]', '<', 0.5),
  ('CC(O)(c1ccc2ncc(-c3ccnc(N[C@H]4CNC[C@@H]4F)n3)n2c1)C(F)(F)F (single isomer, unassigned) [Compound 24a]', '<', 0.5);

Source of measurements: patent US20260226048A1
